Assay: log P by HPLC, EEC Directive 79/831 Annex V.A8, method a)
Format: physicochemical
Details: cell prints no method mark; Ex. 40 value equals the log P given under method a)
measured-quantity: logP
Simply state the number, no unit and no words.

These recorded examples may help you get a feel for the data.
{"compound-structure": "Cn1nc(C(F)(F)C(F)(F)F)c(C(F)(F)F)c1C(=O)N(Cc1ccccn1)c1ccc(Cl)c(C(=O)NC2(C#N)CC2)c1", "logP": 3.53}
{"compound-structure": "Cn1nc(C(F)(F)C(F)(F)F)c(C(F)(F)F)c1C(=O)N(Cc1ccccc1)c1ccc(Cl)c(C(=O)NC2(C#N)CC2)c1", "logP": 3.97}
{"compound-structure": "C=CCn1nc(C(F)(F)C(F)(F)F)c(C(F)(F)F)c1C(=O)Nc1ccc(Cl)c(C(=O)NC2(C#N)CC2)c1", "logP": 3.65}
{"compound-structure": "Cn1nc(C(F)(F)C(F)(F)F)c(C(F)(F)F)c1C(=O)N(Cc1cccnc1)c1ccc(Cl)c(C(=O)NC2(C#N)CC2)c1", "logP": 2.85}
{"compound-structure": "N#CC1(NC(=O)c2cc(NC(=O)c3c(C(F)(F)F)c(C(F)(F)C(F)(F)F)nn3CC(F)(F)F)ccc2Cl)CC1", "logP": 3.60}

Lookup: What logP value was documented for this compound, "CCn1nc(C(F)(F)C(F)(F)F)c(C(F)(F)F)c1C(=O)N(C)c1ccc(Cl)c(C(=O)N(C)C2(C#N)CC2)c1" ?
Found: 3.85

Lookup: Let us now turn to "Cn1nc(C(F)(F)C(F)(F)F)c(C(F)(F)F)c1C(=O)Nc1cc(F)c(Br)c(C(=O)NC2(C#N)CC2)c1"
Found: 3.58

Lookup: Let us now turn to "CCOC(=O)N(C(=O)c1c(C(F)(F)F)c(C(F)(F)C(F)(F)F)nn1C)c1ccc(Cl)c(C(=O)NC2(C#N)CC2)c1"
Found: 3.95

Lookup: Let us now turn to "CCCn1nc(C(F)(F)C(F)(F)F)c(C(F)(F)F)c1C(=O)N(C)c1ccc(F)c(C(=O)N(C)C2(C#N)CC2)c1"
Found: 4.05

Lookup: Let us now turn to "Cn1nc(C(F)(F)C(F)(F)F)c(C(F)(F)F)c1C(=O)N(Cc1ccncc1)c1ccc(Cl)c(C(=O)NC2(C#N)CC2)c1"
Found: 2.52

---

Experiment: log P by HPLC, EEC Directive 79/831 Annex V.A8, method a)
Type: physicochemical
Conditions: reversed-phase C18 HPLC column; cell marked a): HPLC, reversed-phase C18, acetonitrile/water with formic acid, gradient 10% to 95% acetonitrile
measured-quantity: chromatographic logP
Simply state the number, no unit and no words.

{"molecule": "Cn1nc(C(F)(F)C(F)(F)F)c(C(F)(F)F)c1C(=O)Nc1ccc(Cl)c(C(=O)NC2(C#N)CC2)c1 [Example 10]", "chromatographic logP": 3.27}
{"molecule": "CN(C(=O)c1c(C(F)(F)F)c(C(F)(F)C(F)(F)F)nn1C)c1ccc(Cl)c(C(=O)NC2(C#N)CC2)c1 [Example 8]", "chromatographic logP": 3.21}

Now, please, on to the next molecule.
Lookup: What chromatographic logP value was documented for this molecule, CCN(C(=O)c1c(C(F)(F)F)c(C(F)(F)C(F)(F)F)nn1C)c1ccc(Cl)c(C(=O)NC2(C#N)CC2)c1 [Example 6] ?
Found: 3.36
